Data provenance: PubChem BioAssay (NCI)

Tested on: HOP-62 NSCLC
Assay: NCI tumour cell line growth inhibition, 48 h
MEASURED_PARAMETER: TGI

- O=C(NN1C(=O)C=CC1=O)c1ccccc1Nc1ccccc1C(=O)NN1C(=O)C=CC1=O: > 100 µM

Look at each compound and report its TGI.
1. COc1ccc2c(c1)-c1nn(CCN(C)C)c3ccc(C(=O)NCCCN(C)CCCNC(=O)c4ccc5c6c(nn5CCN(C)C)-c5cc(OC)ccc5Nc46)c(c13)N2
2. C=CCN(CC=C)CC(C(C)=O)C(c1ccccc1)c1c(O)c2ccccc2oc1=O (stereo not given)

1. 1.32 µM
2. > 100 µM

Batch request: TGI for each of the following compounds.
1. COC(=O)c1ccccc1CC(Cc1ccccc1)C(=O)OC (stereo not given)
2. C/C(N=Nc1nc2ccccc2o1)=C1/C=CC=CN1O

1: > 100 µM; 2: > 100 µM

====

Tested on: SNB-75 CNS
Test: NCI tumour cell line growth inhibition, 48 h; in the data active = GI50 below about 0.43 µM; inactive = the rest
Answer with one of the outcomes given here: true = active, false = inactive

Example entries and their recorded answers appear below.
* COc1ccc(-n2c(C)nc3c(c(C)nn3-c3ccccc3)c2=O)cc1 | true
* COc1cc(-c2n/c(=C\c3c(O)[nH]c4ccccc34)cc3c2=Nc2ccccc2-3)cc(OC)c1OC | true
* COc1cc2ncn(-c3cc(OCc4ccccc4S(C)(=O)=O)c(C#N)s3)c2cc1OC | false

Here is the next item to consider.
Returns: the outcome recorded for `COc1ccc(-c2ccccc2)cc1-c1c(Nc2cc(Cl)cc(Cl)c2O)c(=O)c1=O` in this assay.
false

====

Task for the reader: assign each of the following molecules its reported TGI.
Test system: NCI-H23 lung
Assay: NCI tumour cell line growth inhibition, 48 h
Give bare numbers, in µM.

• NCCCCNC1(c2cc3ccccc3s2)CCCCC1 = 28.9

# next molecule below
State the recorded TGI for this entry: CC(C)=CC1CC(C)C2(CCC3(C)CC4C(C(=O)CC4(C)O)/C(C=O)=C\CC32)O1 (stereo not given)
0.264

====

System: KM12 colon
Assay: NCI tumour cell line growth inhibition, 48 h
Record form. Attribute: TGI. Fill in for each entry.

Record excerpt, results attached:
* COc1cc2ncn(-c3cc(OCc4ccccc4S(C)(=O)=O)c(C#N)s3)c2cc1OC | > 25 µM
* Cc1ccc(F)cc1NC(=O)c1cc(Cl)ccc1Nc1ccccc1 | > 100 µM
* CCOC(=O)[C@H]1Nc2ccc(Cl)cc2[C@H]2c3ccccc3O[C@H]21 | > 100 µM
* CN1C(=O)C(c2c[nH]c3ccccc23)=C(c2c(-c3c[nH]c4ccccc34)[nH]c3ccccc23)C1=O | 7.61 µM
* Cc1ccccc1C(C(=O)NC1CCCCC1)N(C(=O)Cn1ccnc1C)c1cccc(F)c1 (stereo not drawn) | > 100 µM

Would you mind listing TGI for each of the following compounds?
1. Nc1nc(SCCC/C=C/I)nc2c1ncn2C1OC(CO)C(O)C1O (stereo not drawn)
2. COc1nc2[nH]ccc2c(=O)n1C
3. NC1=C(Cl)C(=O)c2ccccc2C1=O
4. Cc1cc2nc3c4cccc(O)c4n(CCN(C)C)c3nc2cc1C
5. COC(=O)n1c(CBr)c(Br)c2ccccc21
6. CN(C)CCOC1(CC2CCCCC2)CCC(C(C)(C)C)CC1 (stereo not drawn)

1. > 202 µM
2. > 100 µM
3. 25.7 µM
4. 4.17 µM
5. > 100 µM
6. 14.4 µM

Can you give me TGI for all of these, one by one?
1. COc1ccc(C(=O)CC(c2ccc(OC)c(OC)c2)c2c(O)c3ccccc3oc2=O)cc1OC (stereo not drawn)
2. O=C(NN1C(=O)C=CC1=O)c1ccccc1Nc1ccccc1C(=O)NN1C(=O)C=CC1=O
3. COc1ccc2c(c1)-c1oc3ccccc3c(=O)c1CO2
4. C#CCOC(=O)C(N)CCCN=C(N)N (stereo not drawn)
5. O=C1CC/C(=C\COc2ccc3ccc(=O)oc3c2)O1
6. CC1(C)N[P+]2(Nc3ccccc3O2)OC1=O (stereo not drawn)

1: > 100 µM; 2: > 100 µM; 3: > 100 µM; 4: > 100 µM; 5: 45.2 µM; 6: > 100 µM

Item under review: N#C[C@H]1Nc2ccccc2[C@@H](O)C1O (stereo partly drawn) . Reported TGI?
> 100 µM
